- ASSAY_NAME: Plasma concentration in athymic nude mouse bearing human Caco2 cells at 10 mg/kg, po measured after 4 hrs
- Assay type: ADME, organism-based, Caco-2
- Set-up: dose 10 mg/kg, route oral
REPORTED_METRIC: concentration at 4 h
Note: a bare number is incomplete; add the unit.

Query string: Returns the measured concentration at 4 h for the input compound. Input: O=c1[nH]c([C@@H]2CCCN2)nc2c1oc1ccc(Cl)cc12
Result string: 40.1 µM

###

Listing: IC50 of selected molecules
- TARGET_OR_TEST_SYSTEM: Serine/threonine-protein kinase pim-1 (Homo sapiens)
- Sequence (P11309 whole entry): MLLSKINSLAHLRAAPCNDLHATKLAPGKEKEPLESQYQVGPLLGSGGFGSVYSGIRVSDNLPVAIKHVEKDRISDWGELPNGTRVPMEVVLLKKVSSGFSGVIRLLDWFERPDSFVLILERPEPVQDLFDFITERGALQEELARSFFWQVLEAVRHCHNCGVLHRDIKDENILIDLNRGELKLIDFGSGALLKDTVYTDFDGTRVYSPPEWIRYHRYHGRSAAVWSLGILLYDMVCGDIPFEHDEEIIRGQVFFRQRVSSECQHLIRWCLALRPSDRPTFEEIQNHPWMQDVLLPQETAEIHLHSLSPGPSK
Give your result in nM as a bare value.

Record excerpt, results attached:
- O=c1[nH]c(C2CCNCC2)nc2c1oc1ccc(Br)cc12: 22
- CC(N)c1nc2c(oc3ccc(Br)cc32)c(=O)[nH]1 (racemic): 72
- O=c1[nH]c([C@@H]2C[C@@H](O)CN2)nc2c1oc1ccc(Br)cc12: 73
- COc1ccc2oc3c(=O)[nH]c([C@@H]4CCCN4)nc3c2c1: 77
- O=c1[nH]c(C2CCCNC2)nc2c1oc1ccc(Br)cc12 (racemic): 39

Read the next record carefully.
Query string: Find the recorded IC50 belonging to O=c1[nH]c(C2CNC2)nc2c1oc1ccc(Br)cc12 and report it.
Result string: 18
